# Assay target: T1, apical domain of human CD71 (human, UniProt P02786 189-383, limits assumed)
# T1 construct: domain: apical domain; Screen 4 panned against human apical domains; also called human apical domain
# T1 sequence (P02786 189-383 limits assumed): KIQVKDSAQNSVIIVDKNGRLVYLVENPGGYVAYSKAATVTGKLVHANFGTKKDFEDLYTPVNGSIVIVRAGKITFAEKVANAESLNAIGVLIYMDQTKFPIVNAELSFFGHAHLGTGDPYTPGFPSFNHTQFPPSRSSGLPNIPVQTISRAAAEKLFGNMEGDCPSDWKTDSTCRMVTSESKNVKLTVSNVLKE
# Experimental details: primary ELISA screen, Screen 4; signal on apical domain over signal on HSA
Attribute measured: Apical domain:HSA (ratio)
Respond numerically; units are ratio and should not be typed.

Some entries whose results are on file:
Binder	Unit abbreviation	Observed value
CD71-binding FN3 domain of SEQ ID NO: 547 (designed binder) MLPAPKNLVVSRVTEDSARLSWTAPDAAFDSFFIGYLEPQPPGEAIHLIVPGSERSYDLTGLKPGTEYNVTIQGVKGGFPSDPLVASFTT	ratio	322
CD71-binding FN3 domain of SEQ ID NO: 548 (designed binder) MLPAPKNLVVSRVTEDSARLSWTAPDAAFDSFFIGYLEPQPPGEAIYLFVPGSERSYDLTGLKPGTEYNVTIQGVKGGFPSMPLSAIFTT	ratio	257

Then this binder:
Problem: Requested read-out: Apical domain:HSA. Entry: CD71-binding FN3 domain of SEQ ID NO: 552 (designed binder) MLPAPKNLVVSRVTEDSARLSWTAPDAAFDSFFIGYLEPQPPGEAIHLFVPGSERSYDLTGLKPGTEYNVTIQGVKGGFPSMPLSAIFTT
Result: 137

The reported measurements were obtained from patent US20260151494A1.
